B1: TPR 5TU (parent)
chain: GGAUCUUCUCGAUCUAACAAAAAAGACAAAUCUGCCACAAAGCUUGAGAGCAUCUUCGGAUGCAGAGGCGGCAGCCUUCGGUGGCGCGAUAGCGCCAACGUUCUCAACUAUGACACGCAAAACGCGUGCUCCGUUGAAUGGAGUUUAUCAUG

Variants of: B1
Assay: polymerase ribozyme fitness, log enrichment relative to wild type (log ratio); higher = more active; in vitro selection for triplet polymerase activity
Variants at the floor of the assay were thinned out.
Could you label it YES if measured polymerase ribozyme fitness (log ratio) is -3 or higher, and NO otherwise?

>>> print(df.to_string())
                              variant_label  class_label
0  C8A G34C U45A G50A U55A G74A A91G U102G G140C G141A           NO

Ask: Reported polymerase ribozyme fitness (log ratio) reaches at least -3 for C87A A91G C103U U135C ?
Result: NO

Ask: Reported polymerase ribozyme fitness (log ratio) reaches at least -3 for A52G U55A G59C G86U A142C G143C ?
Result: NO

Ask: Reported polymerase ribozyme fitness (log ratio) reaches at least -3 for A20G G68U G126U C132A ?
Result: NO

Ask: Reported polymerase ribozyme fitness (log ratio) reaches at least -3 for A17U A24G A26G A47G G50A G65C U111C A142U ?
Result: NO

Ask: Reported polymerase ribozyme fitness (log ratio) reaches at least -3 for A3G C18A A19G U33G C125U ?
Result: NO

Ask: Reported polymerase ribozyme fitness (log ratio) reaches at least -3 for C10U A22G U44A G100U C103A ?
Result: NO

Ask: Reported polymerase ribozyme fitness (log ratio) reaches at least -3 for G11C U55A C76G G140U ?
Result: NO

Ask: Reported polymerase ribozyme fitness (log ratio) reaches at least -3 for G11A A23U A66C G92A C114U C125A ?
Result: NO

Ask: Reported polymerase ribozyme fitness (log ratio) reaches at least -3 for C14A G68U C76A C99U G100A ?
Result: NO

Ask: Reported polymerase ribozyme fitness (log ratio) reaches at least -3 for A3U G48C C51U C57U C95A A115C ?
Result: NO

Ask: Reported polymerase ribozyme fitness (log ratio) reaches at least -3 for C54A U55G A107U U109C G117A C118U A121C ?
Result: NO

Ask: Reported polymerase ribozyme fitness (log ratio) reaches at least -3 for G50A C118U A122G A137G A147U ?
Result: YES

Ask: Reported polymerase ribozyme fitness (log ratio) reaches at least -3 for C5U U13A A17C C27G A28U A52C C85U A113C U127A U144G ?
Result: NO

Ask: Reported polymerase ribozyme fitness (log ratio) reaches at least -3 for C57A U146A ?
Result: YES

Ask: Reported polymerase ribozyme fitness (log ratio) reaches at least -3 for A91G U130G A150G ?
Result: NO
